STUDY_SYSTEM: hOT7T175 (Homo sapiens)
Construct: expressed in transfected cells
Sequence (Q969F8 whole entry L364H): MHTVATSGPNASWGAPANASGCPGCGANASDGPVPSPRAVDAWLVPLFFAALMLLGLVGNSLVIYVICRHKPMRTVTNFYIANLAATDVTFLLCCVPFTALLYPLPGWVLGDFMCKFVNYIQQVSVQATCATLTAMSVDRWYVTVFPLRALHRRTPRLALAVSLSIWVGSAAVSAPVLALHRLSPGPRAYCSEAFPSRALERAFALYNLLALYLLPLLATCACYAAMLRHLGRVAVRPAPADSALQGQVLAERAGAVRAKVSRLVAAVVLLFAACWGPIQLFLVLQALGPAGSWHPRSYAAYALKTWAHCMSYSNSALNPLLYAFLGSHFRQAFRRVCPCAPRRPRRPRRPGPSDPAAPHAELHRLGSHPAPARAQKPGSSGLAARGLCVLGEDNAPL
ASSAY_PROCEDURE: Intracellular Ca ion level-increasing activity using FLIPR (180 seconds; specific activity to Metastin (1-54))
Type: cell-based
PARTICULARS: hOT7T175/CHO, change in intracellular calcium ion level for 180 seconds, Tables 21-23
OBSERVABLE: intracellular Ca ion level-increasing activity [specific activity to Metastin (1-54)]

>  <SUBSTANCE>
D-Tyr-D-Pya(4)-Asn-Ser-Phe-AzaGly-Leu-Orn-Phe-NH2 [Compound No. 486]

>  <REPORTED_RESULT>
½

$$$$
>  <SUBSTANCE>
3-(3-Indolyl)propionyl-Phe-Gly-Leu-Arg-Phe-NH2 [Compound No. 352]

>  <REPORTED_RESULT>
⅓

$$$$
>  <SUBSTANCE>
D-Tyr-D-Pya(4)-Asn-Ser-Phe-AzaGly-Leu-Har(Me)-Phe-NH2 [Compound No. 489]

>  <REPORTED_RESULT>
½

$$$$

====

STUDY_SYSTEM: hOT7T175 (Homo sapiens)
Construct: expressed in transfected cells
ASSAY_PROCEDURE: Intracellular Ca ion level-increasing activity using FLIPR (180 seconds; specific activity to Metastin (1-54))
Assay type: cell-based
PARTICULARS: hOT7T175/CHO, change in intracellular calcium ion level for 180 seconds, Tables 21-23
Starred links: 1 amine or outer side, 2 acyl side, 3 side chain; linkers in the order of their positions; H or OH if unused. Non-standard residues stand in square brackets, D forms with d. Residues, ends and D or L forms follow the SMILES beside them. *: point of attachment. X10 = CNC(=N)NCCC[C@H](NC(=O)[C@H](CC(C)C)NCCN*)C(=O)N[C@@H](Cc1ccccc1)C(N)=O; X9 = CC(C)C[C@H](NCCN*)C(=O)N[C@@H](CCCNC(=N)N)C(=O)N[C@@H](Cc1ccccc1)C(N)=O; X1 = NC(=O)C[C@@H](C(=O)[*:2])N(C[C@@H](N)Cc1ccc(O)cc1)[*:1]; Propanoyl(3-indol-3-yl) = O=C(CCc1c[nH]c2ccccc12)*; Acetyl(2-(4-imidazolyl)) = O=C(Cc1c[nH]cn1)*; Arg(Me) = CNC(=N)NCCC[C@H](N)C(=O)O; 4Pal = N[C@@H](Cc1ccncc1)C(=O)O; d3Pal = N[C@H](Cc1cccnc1)C(=O)O; azaGly = NNC(=O)O
OBSERVABLE: intracellular Ca ion level-increasing activity [specific activity to Metastin (1-54)]
Give a plain numeric answer without units written out.

>  <COMPOUND>
CNC(=N)NCCC[C@H](NC(=O)[C@H](CC(C)C)NC(=O)NNC(=O)[C@H](Cc1ccccc1)NC(=O)[C@H](CO)NC(=O)[C@H](CC(N)=O)NC(=O)CCc1c[nH]c2ccccc12)C(=O)N[C@@H](Cc1ccccc1)C(N)=O [Compound No. 260] ({Propanoyl(3-indol-3-yl)}-NSF[azaGly]L[Arg(Me)]F-NH2)

>  <STUDY_SYSTEM>
hOT7T175 (Homo sapiens)

>  <REPORTED_RESULT>
5

$$$$
>  <COMPOUND>
CNC(=N)NCCC[C@H](NC(=O)[C@H](CC(C)C)NC(=O)NNC(=O)[C@H](Cc1ccccc1)NC(=O)[C@H](CO)NC(=O)[C@H](CC(N)=O)NC(=O)Cc1c[nH]cn1)C(=O)N[C@@H](Cc1ccccc1)C(N)=O [Compound No. 323] ({Acetyl(2-(4-imidazolyl))}-NSF[azaGly]L[Arg(Me)]F-NH2)

>  <STUDY_SYSTEM>
hOT7T175 (Homo sapiens)

>  <REPORTED_RESULT>
1

$$$$
>  <COMPOUND>
CNC(=N)NCCC[C@H](NC(=O)[C@H](CC(C)C)NCCNC(=O)[C@H](Cc1ccccc1)NC(=O)[C@H](CO)NC(=O)[C@H](CC(N)=O)NC(=O)[C@H](Cc1c[nH]c2ccccc12)NC(=O)[C@H](CC(N)=O)NC(=O)[C@H](N)Cc1ccc(O)cc1)C(=O)N[C@@H](Cc1ccccc1)C(N)=O [Compound No. 307] (H-[dY]NWNSF-X10)

>  <STUDY_SYSTEM>
hOT7T175 (Homo sapiens)

>  <REPORTED_RESULT>
1

$$$$
>  <COMPOUND>
CC(C)C[C@H](NC(=O)CNC(=O)[C@H](Cc1ccccc1)NC(=O)[C@H](CO)NC(=O)[C@H](CC(N)=O)NC(=O)[C@H](Cc1c[nH]c2ccccc12)NC(=O)[C@H](CC(N)=O)NC[C@@H](N)Cc1ccc(O)cc1)C(=O)N[C@@H](CCCNC(=N)N)C(=O)N[C@@H](Cc1ccccc1)C(N)=O [Compound No. 294] (H-[X1]WNSFGLRF-NH2)

>  <STUDY_SYSTEM>
hOT7T175 (Homo sapiens)

>  <REPORTED_RESULT>
10

$$$$
>  <COMPOUND>
CC(C)C[C@H](NCCNC(=O)[C@H](Cc1ccccc1)NC(=O)[C@H](CO)NC(=O)[C@H](CC(N)=O)NC(=O)[C@H](Cc1c[nH]c2ccccc12)NC(=O)[C@H](CC(N)=O)NC(=O)[C@@H](N)Cc1ccc(O)cc1)C(=O)N[C@@H](CCCNC(=N)N)C(=O)N[C@@H](Cc1ccccc1)C(N)=O [Compound No. 261] (H-YNWNSF-X9)

>  <STUDY_SYSTEM>
hOT7T175 (Homo sapiens)

>  <REPORTED_RESULT>
1

$$$$
>  <COMPOUND>
CNC(=N)NCCC[C@H](NC(=O)[C@H](CC(C)C)NC(=O)NNC(=O)[C@H](Cc1ccccc1)NC(=O)[C@H](CO)NC(=O)[C@H](CC(N)=O)NC(=O)[C@H](Cc1ccccc1)NC(=O)[C@@H](CC(N)=O)NC(=O)[C@H](N)Cc1ccc(O)cc1)C(=O)N[C@@H](Cc1ccccc1)C(N)=O [Compound No. 257] (H-[dY][dN]FNSF[azaGly]L[Arg(Me)]F-NH2)

>  <STUDY_SYSTEM>
hOT7T175 (Homo sapiens)

>  <REPORTED_RESULT>
3

$$$$

Recorded intracellular Ca ion level-increasing activity [specific activity to Metastin (1-54)] (compound CNC(=N)NCCC[C@H](NC(=O)[C@H](CC(C)C)NC(=O)NNC(=O)[C@H](Cc1ccccc1)NC(=O)[C@H](CO)NC(=O)[C@H](CC(N)=O)NC(=O)[C@H](Cc1c[nH]c2ccccc12)NC(=O)[C@@H](Cc1c[nH]cn1)NC(=O)[C@H](N)Cc1ccc(O)cc1)C(=O)N[C@@H](Cc1ccccc1)C(N)=O [Compound No. 288] (H-[dY][dH]WNSF[azaGly]L[Arg(Me)]F-NH2) ): 1

Recorded intracellular Ca ion level-increasing activity [specific activity to Metastin (1-54)] (compound CNC(=N)NCCC[C@H](NC(=O)[C@H](CC(C)C)NC(=O)NNC(=O)[C@H](Cc1ccccc1)NC(=O)[C@H](CO)NC(=O)[C@H](CC(N)=O)NC(=O)[C@H](Cc1ccncc1)NC(=O)[C@@H](CC(N)=O)NC(=O)[C@H](N)Cc1ccc(O)cc1)C(=O)N[C@@H](Cc1ccccc1)C(N)=O [Compound No. 303] (H-[dY][dN][4Pal]NSF[azaGly]L[Arg(Me)]F-NH2) ): 5

Recorded intracellular Ca ion level-increasing activity [specific activity to Metastin (1-54)] (compound CNC(=N)NCCC[C@H](NC(=O)[C@H](CC(C)C)NC(=O)NNC(=O)[C@H](Cc1ccccc1)NC(=O)[C@H](CO)NC(=O)[C@H](CC(N)=O)NC(=O)[C@@H](NC(=O)[C@@H](CC(N)=O)NC(=O)[C@H](N)Cc1ccc(O)cc1)[C@@H](C)O)C(=O)N[C@@H](Cc1ccccc1)C(N)=O [Compound No. 284] (H-[dY][dN]TNSF[azaGly]L[Arg(Me)]F-NH2) ): 1

Recorded intracellular Ca ion level-increasing activity [specific activity to Metastin (1-54)] (compound CNC(=N)NCCC[C@H](NC(=O)[C@H](CC(C)C)NC(=O)NNC(=O)[C@H](Cc1ccccc1)NC(=O)[C@H](CO)NC(=O)[C@H](CC(N)=O)NC(=O)[C@H](Cc1c[nH]c2ccccc12)NC(=O)[C@H](CC(N)=O)NC(=O)[C@H](N)Cc1ccc(O)cc1)C(=O)N[C@@H](Cc1ccc(F)cc1)C(N)=O [Compound No. 318] ): 5

Recorded intracellular Ca ion level-increasing activity [specific activity to Metastin (1-54)] (compound CNC(=N)NCCC[C@H](NC(=O)[C@H](CC(C)C)NC(=O)NNC(=O)[C@H](Cc1ccccc1)NC(=O)[C@H](CO)NC(=O)[C@H](CC(N)=O)NC(=O)[C@H](Cc1c[nH]c2ccccc12)NC(=O)[C@H](N)Cc1cccnc1)C(=O)N[C@@H](Cc1ccccc1)C(N)=O [Compound No. 289] (H-[d3Pal]WNSF[azaGly]L[Arg(Me)]F-NH2) ): 1
